Values compiled from patent US20230331737A1.

Molecular target: FKBP12 (Homo sapiens, UniProt P62942)
Test: SPR assay to determine binding affinity to FKBP12 (direct binding)
Settings: immobilized biotinylated avi-FKBP12, single-cycle kinetics
Catalogue of compounds with associated Kd

Worked examples, 3 compounds total:
{"columns": ["COMPOUND", "READOUT_VALUE"],
 "data": [
  ["COCCO[C@H]1C[C@@H]2CC[C@@H](C)[C@@](O)(O2)C(=O)C(=O)N2CCCC[C@H]2C(=O)O[C@H]([C@H](C)C[C@@H]2CC[C@@H](O)[C@H](OC)C2)CC(=O)[C@H](C)/C=C(\\C)[C@@H](O)[C@@H](OC)C(=O)[C@H](C)C[C@H](C)/C=C/C=C/C=C/1C", "< 0.3 nM"],
  ["CO[C@@H]1C[C@H](C[C@@H](C)[C@@H]2CC(=O)[C@H](C)/C=C(\\C)[C@@H](O)[C@@H](OC)C(=O)[C@H](C)C[C@H](C)/C=C/C=C/C=C(\\C)[C@@H](OCCO)C[C@@H]3CC[C@@H](C)[C@@](O)(O3)C(=O)C(=O)N3CCCC[C@H]3C(=O)O2)CC[C@H]1OCCCN1CCOC[C@H]1C", "< 0.3 nM"],
  ["COCCO[C@@H]1C[C@@H]2CC[C@@H](C)[C@@](O)(O2)C(=O)C(=O)N2CCCC[C@H]2C(=O)O[C@H]([C@H](C)C[C@@H]2CC[C@@H](OCCCO)[C@H](OC)C2)CC(=O)[C@H](C)/C=C(\\C)[C@@H](O)[C@@H](OC)C(=O)[C@H](C)C[C@H](C)/C=C/C=C/C=C/1C", "> 1 nM"]
]}

Reported Kd of "CO[C@@H]1C[C@H](C[C@@H](C)[C@@H]2CC(=O)[C@H](C)/C=C(\C)[C@@H](O)[C@@H](OC)C(=O)[C@H](C)C[C@H](C)/C=C/C=C/C=C(\C)[C@@H](OCCc3ccccc3)C[C@@H]3CC[C@@H](C)[C@@](O)(O3)C(=O)C(=O)N3CCCC[C@H]3C(=O)O2)CC[C@H]1O" : > 1 nM

Reported Kd of "CO[C@@H]1C[C@H](C[C@@H](C)[C@@H]2CC(=O)[C@H](C)/C=C(\C)[C@@H](O)[C@@H](OC)C(=O)[C@H](C)C[C@H](C)/C=C/C=C/C=C(\C)[C@@H](OCCOCCO)C[C@@H]3CC[C@@H](C)[C@@](O)(O3)C(=O)C(=O)N3CCCC[C@H]3C(=O)O2)CC[C@H]1O" : < 0.3 nM

---

Catalogue of molecules with associated pKd
Target: FKBP12 ternary complex with FRB (Homo sapiens, UniProt P42345+P62942)
Sequence (P62942 whole entry): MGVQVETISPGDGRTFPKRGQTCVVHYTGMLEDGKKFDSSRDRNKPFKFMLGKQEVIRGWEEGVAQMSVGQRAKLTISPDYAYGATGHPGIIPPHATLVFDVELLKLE
Sequence (P42345 2012-2144 limits assumed): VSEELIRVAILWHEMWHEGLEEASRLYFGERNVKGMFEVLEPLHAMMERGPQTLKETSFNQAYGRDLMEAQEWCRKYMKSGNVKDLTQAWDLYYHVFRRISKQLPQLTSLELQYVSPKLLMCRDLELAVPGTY
Assay: SPR assay to characterize ternary complex formation with FKBP12 (FRB injected over compound-saturated FKBP12)
Settings: FRB dilutions with 100 nM test compound over immobilized FKBP12
pKd: −log10 of the molar value.

Worked examples, 2 molecules total:
{"columns": ["COMPOUND_STRING", "SUBJECT_OF_TEST", "pKd"],
 "data": [
  ["CO[C@@H]1C[C@H](C[C@@H](C)[C@@H]2CC(=O)[C@H](C)/C=C(\\C)[C@@H](O)[C@@H](OC)C(=O)[C@H](C)C[C@H](C)/C=C/C=C/C=C(\\C)[C@@H](OCC3COC3)C[C@@H]3CC[C@@H](C)[C@@](O)(O3)C(=O)C(=O)N3CCCC[C@H]3C(=O)O2)CC[C@H]1OCCO", "FKBP12 ternary complex with FRB (Homo sapiens, UniProt P42345+P62942)", "5.96 to 6.30"],
  ["COCCO[C@H]1C[C@@H]2CC[C@@H](C)[C@@](O)(O2)C(=O)C(=O)N2CCCC[C@H]2C(=O)O[C@H]([C@H](C)C[C@@H]2CC[C@@H](O)[C@H](OC)C2)CC(=O)[C@H](C)/C=C(\\C)[C@@H](O)[C@@H](OC)C(=O)[C@H](C)C[C@H](C)/C=C/C=C/C=C/1C", "FKBP12 ternary complex with FRB (Homo sapiens, UniProt P42345+P62942)", "> 6.30"]
]}

Record "CO[C@@H]1C[C@H](C[C@@H](C)[C@@H]2CC(=O)[C@H](C)/C=C(\C)[C@@H](O)[C@@H](OC)C(=O)[C@H](C)C[C@H](C)/C=C/C=C/C=C(\C)[C@@H](OCCO)C[C@@H]3CC[C@@H](C)[C@@](O)(O3)C(=O)C(=O)N3CCCC[C@H]3C(=O)O2)CC[C@H]1OCCCN1CCOC[C@@H]1C" ; system FKBP12 ternary complex with FRB (Homo sapiens, UniProt P42345+P62942); pKd = > 6.30
